# System: NCI-H23 lung
# method: NCI tumour cell line growth inhibition, 48 h
measured attribute: TGI

>>> print(df.to_string())
                                   compound  measured_attribute    reading
0  CN/N=C(/CC(=O)c1sc(NNC(C)=O)nc1C)C(=O)Nc1ccc(OC)cc1OC                 TGI   > 100 µM
1        N=c1oc2ccc(Cl)cc2cc1C(=O)NC1CCCCC1                 TGI   > 100 µM
2  COC(=O)C(=O)C(C(=O)C(=O)Nc1nc(=S)[nH][nH]1)c1nc2ccc([N+](=O)[O-])cc2[nH]c1=O (stereo not given)                 TGI   > 100 µM
3  CCCNC(=O)c1cc(NC(=O)c2cc(NC(=O)CCS(=O)(=O)OC)cn2C)cn1C                 TGI    40.7 µM
4  Nc1nc(Cl)c2ncn(Cc3ccc(-c4ccc(CCl)cc4)cc3)c2n1                 TGI    19.9 µM
5  Cc1ccccc1NC(=O)CC(=O)n1nc(-c2ccccc2)c(N=Nc2ccc([N+](=O)[O-])cc2)c1-c1ccccc1                 TGI   > 100 µM
6           COC(=O)c1ccccc1Nc1ccccc1C(=O)OC                 TGI   > 100 µM
7      Cc1ccc(C)c(C(=N)c2ccccc2Cc2ccccc2)c1                 TGI   > 100 µM
8  Nc1ncnc2c1ncn2C1OC(C(=O)OCCO)C(O)C1O (stereo not given)                 TGI   > 100 µM
9                     NC(N)=NC(N)=NCc1ccco1                 TGI  > 1250 µM

* * *

# Test system: OVCAR-4 ovarian
# method: NCI tumour cell line growth inhibition, 48 h
Where a SMILES comes first, the peptide text is derived from it. [ ]: non-standard residue; d: D form. The star is where a group is joined. ξ: configuration not given here. dIva = CC[C@@](C)(N)C(=O)O; Aib = CC(C)(N)C(=O)O; ξP = O=C(O)C1CCCN1; βAla = NCCC(=O)O; X5 = OCN*

compound	target or system	TGI
C/C(CC(O)(C(F)(F)F)C(F)(F)F)=N/Nc1ccc([N+](=O)[O-])cc1[N+](=O)[O-]	OVCAR-4 ovarian	> 10 µM
COc1ccc(CNC(=O)c2c(C)n([O-])c3cc(F)c(F)cc3[n+]2=O)cc1	OVCAR-4 ovarian	26.9 µM
CC1OC(n2cnc3c(N)nc(Cl)nc32)C(C)(O)C1O (stereo unspecified)	OVCAR-4 ovarian	> 25 µM
Cc1cc2nc3c(C#N)c4c(c(Nc5ccc(Cl)cc5)n3c2cc1C)CCC4	OVCAR-4 ovarian	> 100 µM
NNC(=O)N/N=C1/C(=O)N(c2ccc(Cl)c(Cl)c2)C(=O)C(=O)C1c1nc2ccccc2o1 (stereo unspecified)	OVCAR-4 ovarian	> 100 µM
CC[C@@](C)(NC(=O)[C@H](C)NC(=O)CCNC(=O)C(C)(C)NC(=O)[C@H](C)NC(=O)[C@@H]1CCCN1C(=O)[C@@](C)(CC)NC(=O)[C@H](Cc1ccccc1)NC(=O)C1CCCN1C(=O)C(C)(C)NC(=O)C1CCCN1C(=O)C(C)(C)NC(C)=O)C(=O)NCCC(=O)N[C@@H](CC(C)C)C(=O)NC(C)(C)C(=O)NCCC(=O)N[C@@H](CC(C)C)C(=O)NC(C)(C)C(=O)NC(C)(C)C(=O)N[C@@H](CC(C)C)C(=O)NCCC(=O)NCO (stereo partly specified) (Ac-[Aib][ξP][Aib][ξP]F[dIva]PA[Aib][βAla]A[dIva][βAla]L[Aib][βAla]L[Aib][Aib]L[βAla]-X5)	OVCAR-4 ovarian	0.346 µM
COC(=O)c1c(OC(C)=O)ccc2c1c1cc3ccccc3c(OC(C)=O)c1n2C	OVCAR-4 ovarian	> 100 µM
C[C@]12CC[C@H]3[C@@H](CCC4=CC(=O)CC[C@@]43C)[C@@H]1CC[C@@H]2OC(=O)c1cccc2c(=O)c3ccccc3[nH]c12	OVCAR-4 ovarian	> 100 µM
Nc1c(O)c(C(=O)O)cc2ccccc12	OVCAR-4 ovarian	48.9 µM
CC1CC2(C)CC(=O)C1C1C(=O)N(CCN3CCOCC3)C(=O)C12 (stereo unspecified)	OVCAR-4 ovarian	> 100 µM
O=C(NC(Cc1ccccc1)P(=O)(O)c1ccccc1)OCc1ccccc1 (stereo unspecified)	OVCAR-4 ovarian	> 100 µM
COc1ccc(-c2cc(-c3ccccc3)nc(N)n2)c(O)c1	OVCAR-4 ovarian	> 100 µM
Cc1cccc(/C=C2\CCCCCC2=O)c1	OVCAR-4 ovarian	> 100 µM
COC(=O)/C=C/N1CC1	OVCAR-4 ovarian	> 10 µM
C[C@H](c1ccc(Cl)cc1[N+](=O)[O-])N1C(=O)c2cc(I)ccc2NC(=O)[C@H]1c1ccc(Cl)cc1	OVCAR-4 ovarian	> 100 µM
CCC(=O)Oc1ccc(/C=N/NC(N)=S)nc1	OVCAR-4 ovarian	> 100 µM
